test system: Pseudomonas aeruginosa; experiment: Challenge test in shampoo, number of surviving (viable) bacteria; type: cell-based, Pseudomonas aeruginosa (ATCC 19429); conditions: Table 3, 125 ppm, 24 hr
endpoint: Viable bacteria after 24 hr

> print(dat)
                                   molecule  data.value
1  Cc1csc(=S)n1[O-].Cc1csc(=S)n1[O-].Cc1csc(=S)n1[O-].[In+3] [Example 11]      9.1 E2
2  Cc1csc(=S)n1[O-].Cc1csc(=S)n1[O-].Cc1csc(=S)n1[O-].[Y+3] [Example 6]      4.5 E4
3  Cc1csc(=S)n1[O-].Cc1csc(=S)n1[O-].Cc1csc(=S)n1[O-].[Co+3] [Example 8]      2.1 E3
4  Cc1csc(=S)n1[O-].Cc1csc(=S)n1[O-].[O]=[V+2] [Example 12]      1.5 E4
